Every entry's value here was drawn from patent US20210139545A1.

- target_system: T1, cytochrome b562 with C-terminally fused Strep-tagII (E. coli)
- T1 construct: also called Cytb562-StrepII; Cytb562-StrepIII
- procedure_text: affinity chromatography, overloaded Sepharose column, washed, biotin elution
Reported values of Retained Cytb562-StrepII for individual entries
recorded_endpoint: Retained Cytb562-StrepII (µg)

INSERT INTO measurements (binder, numeric_readout) VALUES
  ('mutein“1”-m207 (designed binder, Library 6 clone on mutein “1”, 118 and 119 deleted) EAGITGTWYNQLGSTFIVTAGADGALTGTYVTARGNAESRYVLTGRYDSAPATDGSGTALGWTVAWKNNYRNAHSATTWSGQYVGGAEARINTQWLLTSGTTETWLSTLVGHDTFTKVKPSAAS', 358),
  ('mutein“1”-m111 (designed binder, Library 5 clone on mutein “1”) EAGITGTWYNQLGSTFIVTAGADGALTGTYVTARGNAESRYVLTGRYDSAPATDGSGTALGWTVAWKNNYRNAHSATTWSGQYVGGAEARINTQWLLTSGTTEYNALWSTLVGHDTFTKVKPSAAS', 318),
  ('mutein“1”-m41 (designed binder, Library 3 clone on mutein “1”) EAGITGTWYNQLGSTFIVTAGADGALTGTYVTARGNAESRYVLTGRYDSAPATDGSGTALGWTVAWKNNYRNAHSATTWSGQYVGGAEARINTQWLLTSGTTEAWYSTLVGHDTFTKVKPSAAS', 289),
  ('mutein“1”-m301 (designed binder, Library 7 clone on mutein “1”, 118 and 119 deleted) EAGITGTWYNQLGSTFIVTAGADGALTGTYVTARGNAESRYVLTGRYDSAPATDGSGTALGWTVAWKNNYRNAHSATTWSGQYVGGAEARINTQWLLTSGTTEHWMSTLVGHDTFTKVKPSAAS', 400);
